# Test system: 817829-284-R-J1-PDC spheroids with HUVEC/MSC, viability
# RUN_DESCRIPTION: Anticancer human tumor 817829-284-R-J1-PDC patient-derived colon adenocarcinoma cell line growth inhibition [TAK]
# PARTICULARS: curve of first compound; second compound 3 µM
ASSAY_METRIC: IC50

MOLECULE | IC50
COc1c(OCCCN2CCOCC2)ccc2c3n(c(=NC(=O)c4cnc(N)nc4)nc12)CCN3 + CC(C)NCC(C(=O)N1CCN(c2ncnc3c2C(C)CC3O)CC1)c1ccc(Cl)cc1 | < 3.16 nM
Cn1cnc2c(F)c(Nc3ccc(Br)cc3Cl)c(C(=O)NOCCO)cc21 + CC(C)NCC(C(=O)N1CCN(c2ncnc3c2C(C)CC3O)CC1)c1ccc(Cl)cc1 | < 9.49 nM
CC(C)(C)c1nc(-c2cccc(NS(=O)(=O)c3c(F)cccc3F)c2F)c(-c2ccnc(N)n2)s1 + CC(C)NCC(C(=O)N1CCN(c2ncnc3c2C(C)CC3O)CC1)c1ccc(Cl)cc1 | < 31.6 nM

Item Cc1nc(NC(=O)N2CCCC2C(N)=O)sc1-c1ccnc(C(C)(C)C(F)(F)F)c1 (stereo not given) + CC(C)NCC(C(=O)N1CCN(c2ncnc3c2C(C)CC3O)CC1)c1ccc(Cl)cc1 was tested on 817829-284-R-J1-PDC spheroids with HUVEC/MSC, viability; the reported IC50 is < 31.6 nM

Item CCCS(=O)(=O)Nc1ccc(F)c(C(=O)c2c[nH]c3ncc(-c4ccc(Cl)cc4)cc23)c1F + CC(C)NCC(C(=O)N1CCN(c2ncnc3c2C(C)CC3O)CC1)c1ccc(Cl)cc1 was tested on 817829-284-R-J1-PDC spheroids with HUVEC/MSC, viability; the reported IC50 is < 316 nM

Origin of values: PubChem BioAssay AID2060347
